tested on: NCI-H226 lung; test: NCI tumour cell line growth inhibition, 48 h

# compound, TGI
data = [
    ("COc1cc(C=C2C(=O)NC(=O)NC2=O)cc(OC)c1OC", "> 100 µM"),
    ("Oc1ccccc1C(Sc1nc2ccccc2s1)Sc1nc2ccccc2s1", "> 100 µM"),
    ("CCCCN1C(=O)N(c2ccc(OCC)cc2)C2N(CCCC)C1C(C)(C)C2(C)C (stereo unspecified)", "49.3 µM"),
    ("C[C@@H]1CC(=O)C2CCCC1C2=O (stereo partly specified)", "> 100 µM"),
    ("c1cc(CNC23CC4CC(CC(C4)C2)C3)cc(C[N+](Cc2cccc(CNC34CC5CC(CC(C5)C3)C4)c2)(Cc2cccc(CNC34CC5CC(CC(C5)C3)C4)c2)Cc2cccc(CNC34CC5CC(CC(C5)C3)C4)c2)c1 (stereo unspecified)", "45.3 µM"),
    ("CCOC(=O)C1=C(C)N(NC(=O)Nc2ccccc2)C(=O)C1=P(c1ccccc1)(c1ccccc1)c1ccccc1", "> 100 µM"),
    ("Cc1ccc(SCC(CF)OC(C)n2cnc3c(=O)[nH]c(N)nc32)cc1 (stereo unspecified)", "> 100 µM"),
    ("CCOc1cn(C2CC(O)C(CO)O2)c(=O)[nH]c1=O (stereo unspecified)", "> 100 µM"),
    ("CS/C(N)=N\\NC(=O)CCC(=O)Nc1ccccc1C(F)(F)F", "> 100 µM"),
    ("COc1ccc(-c2n[nH]nc2-c2cc(OC)c(OC)c(OC)c2)cc1", "82.7 µM"),
    ("Cc1cccc(N2CCN(C(=S)c3ccc4c(c3)OCO4)CC2)c1", "> 100 µM"),
]

Recorded values, source PubChem BioAssay (NCI).
